# Measurement description: probe aNOTCH3 binding on compound microarray – biochemical, small-molecule microarray, 635/667 nm fluorescence, primary screen (AID 1120);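 also: probe is a biotin-tagged antibody raised against NOTCH3 rather than NOTCH3 protein; score merges spot fluorescence near 667 nm with spot signal to noise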
# Condition info: higher = more signal
The reader will find reported composite z-score values listed item by item below.
# output: bare number, no unit

{"Compound": "COc1ccccc1CN1C(=O)c2ccccc2[C@](Cc2ccccc2I)(C(=O)NCC(C)C)[C@@H]1c1ccc(CO)cc1", "composite z-score": -0.0693}
{"Compound": "Cc1ccc(N2C(=O)c3ccccc3[C@](C)(C(=O)NCCCN(C)C)[C@@H]2c2ccc(CO)cc2)nc1", "composite z-score": -0.0984}
{"Compound": "O=C1C2C=CC(C(O)c3cccs3)N(Nc3ccc([N+](=O)[O-])cc3)C2C(=O)N1c1ccccc1 (configuration not stated)", "composite z-score": 0.0105}
{"Compound": "Cc1ccccc1C(O)C1C=CC2C(=O)N(c3ccccc3)C(=O)C2N1Nc1ccccc1 (configuration not stated)", "composite z-score": 0.312}
{"Compound": "COc1cc(C(O)C2C=CC3C(=O)N(c4ccccc4)C(=O)C3N2Nc2ccccc2)cc(OC)c1OC (configuration not stated)", "composite z-score": 0.416}
{"Compound": "COCCOC(=O)N1C(=O)[C@@]2(c3cc(C#CCNC(N)=O)ccc31)[C@H](C(=O)Nc1nc3ccccc3s1)[C@H]1C(=O)O[C@H](c3ccccc3)[C@H](c3ccccc3)N1[C@@H]2c1ccccc1OCCO", "composite z-score": 0.0306}

Now look at this entry.
**Q:** composite z-score lookup needed for `COc1ccc(C(=O)Nc2ccc(CN3C(=O)[C@@]4(O[C@@H](CCn5cc(CCO)nn5)[C@H]([Si](C)(C)c5ccc(OC)cc5)[C@H]4C)c4ccccc43)cc2)cc1` , thanks.
**A:** 0.0276

* * *

# System: wheat germ agglutinin (Triticum aestivum), Alexa647-labelled
# Measurement description: Alexa647-WGA lectin binding to printed small molecules – biochemical, small-molecule microarray, 635/667 nm fluorescence, artefact control for SMM control-protein annotation, profiling panel (AID 1140);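 also: score merges 667 nm feature emission with signal to noise over triplicate slides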
# Condition info: WGA-A647 binding, 635 nm fluorescence, higher = more signal
Short version: composite z-score at least 0.6 is Fulfilled, less is Not fulfilled.

A selection of reference data follows.
{"Compound": "COc1cc(C(O)C2C=CC3C(=O)N(c4ccccc4)C(=O)C3N2Nc2ccccc2)cc(OC)c1OC (stereo not given)", "Class assignment": "Fulfilled"}
{"Compound": "COC(=O)[C@@]1(Cc2ccc(OC)cc2)[C@H]2c3cc(C(=O)N(C)C)[nH]c3C[C@H]2CN1C(=O)c1ccccc1", "Class assignment": "Fulfilled"}
{"Compound": "CCCC[C@H]1OB(O)C[C@H]2C1=C(COc1ccccc1)C[C@H]1C(=O)C=CC(=O)[C@H]12", "Class assignment": "Not fulfilled"}
{"Compound": "C[N+](C)(C)CCCCNC(=O)[C@H]1C[C@H]2C(=O)N[C@@H](Cc3ccccc3)C(=O)N2[C@H]1c1cccc(OCCO)c1", "Class assignment": "Not fulfilled"}
{"Compound": "O=C1C2C=CC(C(O)c3cccs3)N(Nc3ccc([N+](=O)[O-])cc3)C2C(=O)N1c1ccccc1 (stereo not given)", "Class assignment": "Fulfilled"}
{"Compound": "Cc1ccc(S[C@]2(C(=O)NCC(F)(F)F)CC(=O)N(Cc3ccccc3C(F)(F)F)[C@@H]2c2ccc(CO)cc2)cc1", "Class assignment": "Not fulfilled"}

**Q:** Record `COCCCNC(=O)[C@@]1(CCC(=O)OC(C)(C)C)COC(c2ccc(OCCCO)cc2)=N1` ; criterion: composite z-score no lower than 0.6. Met?
**A:** Not fulfilled

**Q:** Another compound: CC(C)=CCCC(C)=CC(O)C1C=CC2C(=O)NC(=O)C2N1Nc1ccc(Cl)cc1Cl (stereo not given)
**A:** Fulfilled

**Q:** Consider next the compound `CCOC(=O)C[C@H]1[C@H](OC(=O)c2cc3ccccc3oc2=O)[C@@H](NC(=O)CC(C)C)c2cc(OCCCO)ccc2N1C(=O)Cc1ccc(OC)cc1` in the same way.
**A:** Not fulfilled

**Q:** // repeat for `O=C1O[C@@H](c2ccccc2)[C@@H](c2ccccc2)N2[C@@H](c3ccccc3OCCO)[C@]3(C(=O)Nc4ccc(C#CCCO)cc43)[C@@H](C(=O)NC[C@H](O)c3ccccc3)[C@H]12` and report
**A:** Fulfilled

**Q:** Now consider CCOc1cc(C(O)C2C=CC3C(=O)N(c4ccccc4)C(=O)C3N2Nc2ccccc2F)ccc1O (stereo not given) and answer again.
**A:** Fulfilled

**Q:** `COC(=O)[C@@]1(Cc2ccc(F)cc2)[C@H]2c3cc(C(=O)N(C)C)n(C)c3C[C@H]2CN1C(=O)c1ccccc1` , same question.
**A:** Not fulfilled

* * *

# Measurement description: compound effects on lung adenocarcinoma cell viability – A549, calcein-AM fluorescence, 48 h, basal, profiling panel (AID 1162); also: test concentration not given here
# Condition info: higher = more signal
Label scheme for z-score: lower than 0.6 is criterion not met, 0.6 and above is criterion met.

**Q:** Is z-score at least 0.6? Consider `[N-]=[N+]=Nc1ccccc1C[C@@]1(C(=O)NCc2ccccc2)N=C(c2ccc(OCCCO)cc2)O[C@@H]1c1ccccc1N=[N+]=[N-]`
**A:** criterion not met

**Q:** Also need `COc1ccc([Si](C)(C)[C@H]2[C@H](CCO)O[C@@]3(C(=O)N(Cc4ccc(NC(=O)[C@H](C)O)cc4)c4ccccc43)[C@@H]2C)cc1` , thanks.
**A:** criterion not met

**Q:** Another compound to look at: CN(C)c1ccc(C(O)C2C=CC3C(=O)N(Cc4ccccc4)C(=O)C3N2n2cnnc2)cc1 (configuration not stated)
**A:** criterion not met

**Q:** Proceed to CC(C)(C)N1CC=CC23O[C@@H]4/C=C\CCCOC(=O)C4[C@H]2C(=O)N(CCCCCO)[C@@H]3C1=O (some centres not stated)
**A:** criterion not met

**Q:** Continue with CC(C)C[C@@H]1NC(=O)[C@@]23C(=O)N[C@@H](Cc4ccccc4)C2[C@H](C)[C@@]2(C)O[C@H]2C3/C=C/C/C=C\CNC(=O)CNC1=O (some centres not stated)
**A:** criterion not met

**Q:** Cool, now `C[C@@H]1ON(c2ccc(I)cc2)[C@H](c2cccc(NC(=O)OCC3c4ccccc4-c4ccccc43)c2)[C@H]1C(=O)N1C(=O)OC[C@H]1Cc1ccccc1`
**A:** criterion met

**Q:** Entry to check: NC(=O)N1C(=O)C2C(C1=O)C1C=C(CCCO)C2C(C2CC2)N1Cc1sc2ccccc2c1Cl (configuration not stated)
**A:** criterion met

* * *

# Measurement description: optical density change of DRC41 E. coli – strain DRC41, OD650, 24 h, E. coli filamentation project, primary screen (AID 1093);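 also: MC1000 strain lacking acrAB efflux and sulA so SOS filamentation is blocked; test concentration not given here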
# Condition info: E. coli DRC41 growth, higher = more signal, called active from +8 up or from −8 down
In this section we review reported z-score values for a set of compounds.
Write no unit; give the number alone.

Answered examples (3):
{"Compound": "CC(C)C(O)C1C=CC2C(=O)NC(=O)C2N1Nc1ccccn1 (stereo not drawn)", "z-score": -0.847}
{"Compound": "C=C(C)[C@@H]1CC=C(C(O)C2C=CC3C(=O)N(c4ccccc4)C(=O)C3N2Nc2ccc([N+](=O)[O-])cc2)CC1 (stereo partly drawn)", "z-score": -1.96}
{"Compound": "CC1CC/C=C\\[C@H]2OC34C=CCN(CCN5CCOCC5)C(=O)[C@H]3N(CCCO)C(=O)[C@@H]4C2C(=O)O1 (stereo partly drawn)", "z-score": -0.546}

**Q:** Could you share which z-score value was measured for `C=C(CCCC)C(=O)CC[C@H](OC(=O)c1ccccc1-c1ccccc1C(=O)O)c1ccc(OCCO)cc1` ?
**A:** 0.836

**Q:** Subsequent entry: `COC(=O)[C@@]1(Cc2ccc(OC)cc2)[C@H]2c3cc(C(=O)N4CCCC4)n(Cc4c(CO)[nH]cc(C)c4=O)c3C[C@H]2CN1C(=O)c1ccccc1`
**A:** -0.391

**Q:** // query: `COC(=O)[C@@]1(Cc2ccccc2)[C@H]2c3cc(C(=O)N(C)C)n(Cc4ccc(S(C)(=O)=O)cc4)c3C[C@H]2CN1C(=O)c1ccccc1`
**A:** -1.59

**Q:** Same for NC(=O)N1C(=O)C2C(C1=O)C1C=C(CCCO)C2C(c2ccc(CN3CCCC3)cc2)N1Cc1sc2ccccc2c1Cl (stereo not drawn)
**A:** 0.465

* * *

# Measurement description: Pseudomonas biofilm growth suppression – PAO1 strain, BacTiter-Glo luminescence, LB-PBS, primary screen (AID 1144)
# Condition info: P. aeruginosa PAO1 biofilm, 12 h, higher = more signal
Would you mind labelling by z-score? At or over 0.2 is MET, under is NOT MET.

{"Molecule": "COC(=O)C1(Cc2ccccc2)C=C2C(=C(C)C(=O)C2C)CN1 (stereo unspecified)", "Class assignment": "MET"}
{"Molecule": "O=C1O[C@@H](c2ccccc2)[C@@H](c2ccccc2)N2[C@@H](c3ccc(OCCO)cc3)[C@]3(C(=O)Nc4ccc(C#CC5(O)CCCCCC5)cc43)[C@@H](C(=O)Nc3nc4ccccc4s3)[C@H]12", "Class assignment": "NOT MET"}
{"Molecule": "CC(C)(C)OC(=O)CC[C@]1(C(=O)NCC(O)CO)N=C(c2ccc(OCCCO)cc2)O[C@H]1c1ccccc1N=[N+]=[N-] (stereo partly specified)", "Class assignment": "NOT MET"}
{"Molecule": "C=CC[C@]1(C(=O)NCC(O)CO)COC(c2ccc(OCCCO)cc2)=N1 (stereo partly specified)", "Class assignment": "NOT MET"}
{"Molecule": "O=C1C[C@@](C(=O)O)(c2ccc([N+](=O)[O-])cc2)[C@@H](c2ccc(CO)cc2)N1C1CCCCC1", "Class assignment": "MET"}
{"Molecule": "N#Cc1ccc(NN2C(C(O)C3CC=CCC3)C=CC3C(=O)N(c4ccccc4)C(=O)C32)cc1 (stereo unspecified)", "Class assignment": "NOT MET"}
{"Molecule": "CCCCC(O)C1C=CC2C(=O)N(c3ccccc3)C(=O)C2N1Nc1ccc(C#N)cc1 (stereo unspecified)", "Class assignment": "NOT MET"}
{"Molecule": "COC(=O)[C@H](Cc1ccc(O)cc1)N[C@@H](/C=C/C1CC1)[C@H](O)Cc1ccccc1", "Class assignment": "MET"}
{"Molecule": "CC(C)c1nc2cc(Br)ccc2c(=O)o1", "Class assignment": "NOT MET"}
{"Molecule": "C=C(COC)C(=O)CC[C@@H](OC(C)=O)c1ccccc1OCCO", "Class assignment": "NOT MET"}

**Q:** Can `Cc1ccc(S[C@]2(C(=O)NC(C)C)CC(=O)N(C3CCCCC3)[C@@H]2c2ccc(CO)cc2I)cc1` be said to have z-score at or above 0.2?
**A:** NOT MET

**Q:** Same thing, different molecule: `CCOC(=O)C1=CC[C@@H](c2ccc(OC)cc2)N(S(=O)(=O)c2ccc(C)cc2)[C@H]1c1ccc(C)cc1`
**A:** NOT MET

**Q:** Try `COC(=O)[C@@]1(Cc2ccccc2)[C@H]2c3cc(C(=O)N(C)C)n(CCSC(=N)N)c3C[C@H]2CN1C(=O)c1ccccc1` next.
**A:** NOT MET

**Q:** Try `CC1=C([C@H](O)CCc2ccccc2)[C@H](CO)n2c(=O)n(-c3ccccc3)c(=O)n2C1` next.
**A:** NOT MET

**Q:** Also, Cc1ccc(C(C)CC(O)C2C=CC3C(=O)N(C)C(=O)C3N2Nc2ccccc2)o1 (stereo unspecified) please.
**A:** NOT MET

**Q:** Queued: COc1ccc(C(O)C2C=CC3C(=O)N(C)C(=O)C3N2N(c2ccccc2)c2ccccc2)cc1 (stereo unspecified)
**A:** MET

**Q:** CC(C)OC(=O)CC(=O)CC(O)c1cccc([N+](=O)[O-])c1 (stereo unspecified) , same question.
**A:** NOT MET

**Q:** Request: `C=C(/C(=C/C[C@@H](OC(C)=O)c1cccc(OCCO)c1)c1cnc2ccccc2c1)C(C)C`
**A:** NOT MET

**Q:** Then this molecule: `O=C1O[C@@H](c2ccccc2)[C@@H](c2ccccc2)N2[C@@H](c3ccc(OCCO)cc3)[C@]3(C(=O)Nc4ccc(C#CC5(O)CCCCCC5)cc43)[C@@H](C(=O)O)[C@H]12`
**A:** NOT MET

**Q:** Same question for COc1ccc(C(O)C2C=CC3C(=O)NC(=O)C3N2Nc2ccc(Cl)cc2Cl)c2ccccc12 (stereo unspecified) please.
**A:** NOT MET
